- Test system: Trichophyton rubrum
- procedure.summary: Antifungal activity against Trichophyton rubrum after 7 days by NCCLS protocol based method
- Type: functional
- experimental.parameters: 168 h

| compound | MIC |
| --- | --- |
| Cc1ccc(OCCCN(C)CC(O)(Cn2cncn2)c2ccc(F)cc2F)cc1 (centres undefined) | 1 ng/mL |
| CN(CCCOc1ccc(Cl)cc1)CC(O)(Cn1cncn1)c1ccc(F)cc1F (centres undefined) | 1 ng/mL |
| CN(CCCCOc1ccc(Cl)cc1)CC(O)(Cn1cncn1)c1ccc(F)cc1F (centres undefined) | 1 ng/mL |
| CN(CCCOc1ccccc1[N+](=O)[O-])CC(O)(Cn1cncn1)c1ccc(F)cc1F (centres undefined) | 1 to 16 ng/mL |
| CN(CCCOc1cccc([N+](=O)[O-])c1)CC(O)(Cn1cncn1)c1ccc(F)cc1F (centres undefined) | 1 to 16 ng/mL |
| Cc1ccc(OCCCCN(C)CC(O)(Cn2cncn2)c2ccc(F)cc2F)cc1 (centres undefined) | 1 ng/mL |
| CN(CCCCOc1cccc([N+](=O)[O-])c1)CC(O)(Cn1cncn1)c1ccc(F)cc1F (centres undefined) | 1 to 16 ng/mL |
| CN(CCCCOc1ccc([N+](=O)[O-])cc1)CC(O)(Cn1cncn1)c1ccc(F)cc1F (centres undefined) | 1 ng/mL |
| CN(CCCCOc1ccccc1[N+](=O)[O-])CC(O)(Cn1cncn1)c1ccc(F)cc1F (centres undefined) | 1 to 16 ng/mL |
| CCC(C)n1ncn(-c2ccc(N3CCN(c4ccc(OCC5COC(Cn6cncn6)(c6ccc(Cl)cc6Cl)O5)cc4)CC3)cc2)c1=O (centres undefined) | 62.5 ng/mL |
| OC(Cn1cncn1)(Cn1cncn1)c1ccc(F)cc1F | 500 ng/mL |
| COc1ccc(OCCCN(C)CC(O)(Cn2cncn2)c2ccc(F)cc2F)cc1 (centres undefined) | 1 to 16 ng/mL |
| CN(CCCOc1ccc([N+](=O)[O-])cc1)CC(O)(Cn1cncn1)c1ccc(F)cc1F (centres undefined) | 1 ng/mL |
| Cc1cccc(OCCCN(C)CC(O)(Cn2cncn2)c2ccc(F)cc2F)c1 (centres undefined) | 1 ng/mL |
| Cc1ccccc1OCCCN(C)CC(O)(Cn1cncn1)c1ccc(F)cc1F (centres undefined) | 1 to 16 ng/mL |
| CN(CCCOc1ccc(F)cc1)CC(O)(Cn1cncn1)c1ccc(F)cc1F (centres undefined) | 1 to 16 ng/mL |
| CN(CCCOc1ccccc1Cl)CC(O)(Cn1cncn1)c1ccc(F)cc1F (centres undefined) | 1 to 16 ng/mL |
| CN(CCCOc1ccc(C(C)(C)C)cc1)CC(O)(Cn1cncn1)c1ccc(F)cc1F (centres undefined) | 1 to 16 ng/mL |
| Cc1cccc(OCCCCN(C)CC(O)(Cn2cncn2)c2ccc(F)cc2F)c1 (centres undefined) | 1 ng/mL |

----------
- System: Candida albicans
- procedure.summary: Potency index, ratio of fluconazole MIC to test compound MIC for Candida albicans
- Type: functional
readout.kind: Ratio

| compound | val |
| --- | --- |
| OC(CN1CCC(OCc2ccccc2)CC1)(Cn1cncn1)c1ccc(F)cc1F (stereo not given) | 82 |
| OC(CN1CCC(OCc2cccc(Cl)c2)CC1)(Cn1cncn1)c1ccc(F)cc1F (stereo not given) | 82 |
| OC(CN1CCC(OCc2ccccc2F)CC1)(Cn1cncn1)c1ccc(F)cc1F (stereo not given) | 82 |
| N#Cc1ccc(COC2CCN(CC(O)(Cn3cncn3)c3ccc(F)cc3F)CC2)cc1 (stereo not given) | 82 |
| OC(CN1CCC(OCc2ccc(Cl)c(Cl)c2)CC1)(Cn1cncn1)c1ccc(F)cc1F (stereo not given) | 82 |
| C#CCN(Cc1ccc(F)cc1F)CC(O)(Cn1cncn1)c1ccc(F)cc1F (stereo not given) | 515 |
| OC(CN1CCC(OCc2ccc(Cl)cc2Cl)CC1)(Cn1cncn1)c1ccc(F)cc1F (stereo not given) | 82 |
| OC(CN1CCC(OCc2ccccc2Cl)CC1)(Cn1cncn1)c1ccc(F)cc1F (stereo not given) | 82 |
| OC(CN1CCC(OCc2cccc(Br)c2)CC1)(Cn1cncn1)c1ccc(F)cc1F (stereo not given) | 82 |
| OC(CN1CCC(OCc2ccc(F)cc2)CC1)(Cn1cncn1)c1ccc(F)cc1F (stereo not given) | 82 |
